TESTED_SYSTEM: NK2 (Homo sapiens)
Sequence (P21452 whole entry): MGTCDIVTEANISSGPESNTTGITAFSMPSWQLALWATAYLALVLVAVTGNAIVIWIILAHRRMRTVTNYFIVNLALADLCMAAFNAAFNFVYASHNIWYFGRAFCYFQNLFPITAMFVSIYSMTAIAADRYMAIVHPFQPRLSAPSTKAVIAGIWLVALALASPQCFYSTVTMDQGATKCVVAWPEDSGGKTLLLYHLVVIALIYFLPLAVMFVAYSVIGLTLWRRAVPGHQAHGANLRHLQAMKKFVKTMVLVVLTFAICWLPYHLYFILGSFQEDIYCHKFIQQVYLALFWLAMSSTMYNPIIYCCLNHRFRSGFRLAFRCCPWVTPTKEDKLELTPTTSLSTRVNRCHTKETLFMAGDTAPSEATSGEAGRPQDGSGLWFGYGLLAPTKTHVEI
EXPERIMENT_SUMMARY: Signal transduction (ST), intracellular Ca++ (FLIPR), NK2
Assay type: cell-based
ASSAY_CONTEXT: read-out: pIC50 NK2 (converted)
ASSAY_METRIC: IC50 (nM)

Some entries whose results are on file:
- COMPOUND: "O=C(c1ccoc1)N1CC[C@H](N2CCN([C@@H]3CCN(C(=O)c4cc(C(F)(F)F)cc(C(F)(F)F)c4)[C@@H](Cc4ccc(Cl)c(Cl)c4)C3)CC2)C1"
  READOUT_NUMBER: 6310
- COMPOUND: "Cn1cc(C(=O)N2CCC(N3CCN([C@H]4CCN(C(=O)c5cc(C(F)(F)F)cc(C(F)(F)F)c5)[C@H](Cc5ccccc5)C4)CC3)C2)ccc1=O (some centres unmarked)"
  READOUT_NUMBER: 2000
- COMPOUND: "O=C(c1cc(C(F)(F)F)cc(C(F)(F)F)c1)N1CC[C@H](N2CCN([C@H]3CCN(C(=O)n4ccnc4)C3)CC2)C[C@H]1Cc1ccc(Cl)c(Cl)c1"
  READOUT_NUMBER: 200
- COMPOUND: "COc1ccccc1S(=O)(=O)N1CCC(N2CCN([C@H]3CCN(C(=O)c4cc(C(F)(F)F)cc(C(F)(F)F)c4)[C@H](Cc4ccccc4)C3)CC2)C1 (some centres unmarked)"
  READOUT_NUMBER: 794

A = O=C(c1cc(C(F)(F)F)cc(C(F)(F)F)c1)N1CC[C@H](N2CCN(C3CCN(S(=O)(=O)c4ccc(COCc5ccccc5)s4)C3)CC2)C[C@H]1Cc1ccccc1 (some centres unmarked)
B = Cc1ccccc1C(=O)N1CCC(N2CCN([C@H]3CCN(C(=O)c4cc(C(F)(F)F)cc(C(F)(F)F)c4)[C@H](Cc4ccccc4)C3)CC2)C1 (some centres unmarked)
C = O=C(c1cc(C(F)(F)F)cc(C(F)(F)F)c1)N1CC[C@H](N2CCN(C3CCN(S(=O)(=O)c4cccs4)C3)CC2)C[C@H]1Cc1ccccc1 (some centres unmarked)
D = O=C(C1CCOC1)N1CCC(N2CCN(C3CCN(C(=O)c4cc(C(F)(F)F)cc(C(F)(F)F)c4)C(Cc4ccc(F)c(F)c4)C3)CC2)C1 (single isomer, unassigned) [Compound 270]
# rank_down: sort by IC50, max first List the labels according to the requested ordering. B, D, C, A
(B: 3980 nM, D: 2000 nM, C: 1260 nM, A: 501 nM)

---

TESTED_SYSTEM: NK3 (Homo sapiens)
Sequence (P29371 whole entry): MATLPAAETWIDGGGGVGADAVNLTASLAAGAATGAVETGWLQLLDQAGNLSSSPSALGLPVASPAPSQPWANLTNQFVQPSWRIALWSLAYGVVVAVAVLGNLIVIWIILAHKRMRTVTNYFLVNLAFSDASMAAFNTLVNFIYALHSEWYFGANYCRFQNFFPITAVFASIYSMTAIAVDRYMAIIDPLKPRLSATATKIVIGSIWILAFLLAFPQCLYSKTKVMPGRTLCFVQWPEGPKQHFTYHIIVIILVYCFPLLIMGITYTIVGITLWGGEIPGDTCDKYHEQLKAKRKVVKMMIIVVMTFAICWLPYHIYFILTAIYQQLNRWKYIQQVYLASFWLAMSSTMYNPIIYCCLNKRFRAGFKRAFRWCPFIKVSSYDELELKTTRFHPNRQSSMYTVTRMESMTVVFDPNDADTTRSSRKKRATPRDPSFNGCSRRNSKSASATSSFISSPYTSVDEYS
EXPERIMENT_SUMMARY: Signal transduction (ST), intracellular Ca++ (FLIPR), NK3
Format: cell-based
ASSAY_CONTEXT: read-out: pIC50 NK3 (converted)
ASSAY_METRIC: IC50 (µM)

Consider the following illustrative entries.
- MOLECULE: "CC(C)C(=O)N1CCC(N2CCN([C@H]3CCN(C(=O)c4cc(C(F)(F)F)cc(C(F)(F)F)c4)[C@H](Cc4ccccc4)C3)CC2)C1 (stereo partly drawn) [Compound 199]"
  IC50 / µM: 1.58
- MOLECULE: "O=C(C1CC1)N1CC[C@H](N2CCN([C@H]3CCN(C(=O)c4cc(C(F)(F)F)cc(C(F)(F)F)c4)[C@H](Cc4ccc(Cl)c(Cl)c4)C3)CC2)C1 [Compound 312]"
  IC50 / µM: 0.501
- MOLECULE: "COC(=O)c1sccc1S(=O)(=O)N1CCC(N2CCN([C@H]3CCN(C(=O)c4cc(C(F)(F)F)cc(C(F)(F)F)c4)[C@H](Cc4ccccc4)C3)CC2)C1 (stereo partly drawn) [Compound 77]"
  IC50 / µM: 0.501
- MOLECULE: "O=C(c1ccoc1)N1CCC(N2CCN(C3CCN(C(=O)c4cc(C(F)(F)F)cc(C(F)(F)F)c4)C(Cc4ccc(F)c(F)c4)C3)CC2)C1 (stereo not drawn) [Compound 226]"
  IC50 / µM: 0.501

1 = CC(C)(C)OC(=O)N1CC[C@@H](N2CCN([C@H]3CCN(C(=O)c4cc(C(F)(F)F)cc(C(F)(F)F)c4)[C@H](Cc4ccc(Cl)c(Cl)c4)C3)CC2)C1 [Compound 261]
2 = CC(C)(C)OC(=O)N1CCC[C@H]1C(=O)N1CCC(N2CCN([C@H]3CCN(C(=O)c4cc(C(F)(F)F)cc(C(F)(F)F)c4)[C@H](Cc4ccccc4)C3)CC2)C1 (stereo partly drawn) [Compound 115]
Higher IC50 between 1 and 2 ? Your choice should be expressed through its label. 1

// provenance: patent US7795261B2
